Test system: Cell line
Assay Text: Inhibitory concentration against TNF-alpha release in LPS-stimulated human whole blood
Type: functional, cell-based
Measure: IC50 (µM)

Input Smiles | Measure | Unit Abbreviation | Reported
CC1(C)C[C@@H](O)CN(S(=O)(=O)c2ccc(OCc3ccc(F)cc3Cl)cc2)[C@H]1C(=O)NO | IC50 | µM | 10.2
CC1(C)C[C@@H](O)CN(S(=O)(=O)c2ccc(OCc3ccccc3Br)cc2)[C@H]1C(=O)NO | IC50 | µM | 8.9
CC1(C)C[C@@H](O)CN(S(=O)(=O)c2ccc(OCc3ccc(Br)cc3)cc2)[C@H]1C(=O)NO | IC50 | µM | 7.7

---

Assay Text: Inhibitory concentration against Aggrecanase
Measure: IC50

Examples from the recorded data:
Input Smiles | IC50
CC1(C)C[C@@H](O)CN(S(=O)(=O)c2ccc(OCc3nccc4ccccc34)cc2)[C@H]1C(=O)NO | > 0.1 µM
CC1(C)C[C@@H](O)CN(S(=O)(=O)c2ccc(OCc3ccc(Br)cc3)cc2)[C@H]1C(=O)NO | > 0.1 µM

As a next step, examine the molecule that follows.
// Cc1cccc(COc2ccc(S(=O)(=O)N3C[C@H](O)CC(C)(C)[C@@H]3C(=O)NO)cc2)c1 : IC50 value = > 0.1 µM
